Origin of values: patent US20240287046A1

Tested on: ASPC-1 tumor-bearing mice
protocol-notes: Biodistribution of radionuclide labeled complexes in ASPC-1 tumor-bearing mice
Assay type: in vivo, BALB/c nude mice
condition-parameters: ^177Lu-labeled complex
Exercise: state measured AUC (0-72 h) ratio Tumor/Kidney for each of the compounds provided.
Numbers only.

Consider the following illustrative entries.
compound: COc1cccc(OC)c1-c1cc(C(=O)NC2(C(=O)O)C3CC4CC(C3)CC2C4)nn1-c1ccc(N(C)CCCN(C)CCCN(C)C(=O)CN2CCN(CC(=O)O)CCN(CC(=O)O)CCN(CC(=O)O)CC2)cc1C(C)C (stereo not drawn) [Compound I-1]
AUC (0-72 h) ratio Tumor/Kidney: 5.6
--
compound: COc1cccc(OC)c1-c1cc(C(=O)NC2(C(=O)O)C3CC4CC(C3)CC2C4)nn1-c1ccc(NCCCN(C)CCCNC(=O)CN2CCN(CC(=O)O)CCN(CC(=O)O)CCN(CC(=O)O)CC2)cc1C(C)C (stereo not drawn) [Compound I-2]
AUC (0-72 h) ratio Tumor/Kidney: 10.4
--
compound: COc1cccc(OC)c1-c1cc(C(=O)NC2(C(=O)O)C3CC4CC(C3)CC2C4)nn1-c1ccc(NCCOCCOCCNC(=O)CN2CCN(CC(=O)O)CCN(CC(=O)O)CCN(CC(=O)O)CC2)cc1C(C)C (stereo not drawn) [Compound I-10]
AUC (0-72 h) ratio Tumor/Kidney: 15.4
--
compound: COc1cccc(OC)c1-c1cc(C(=O)NC2(C(=O)O)C3CC4CC(C3)CC2C4)nn1-c1ccc(NC(=O)CCCN(C)CCCN(C)C(=O)CN2CCN(CC(=O)O)CCN(CC(=O)O)CCN(CC(=O)O)CC2)cc1C(C)C (stereo not drawn) [Compound I-5]
AUC (0-72 h) ratio Tumor/Kidney: 14.2

Would you mind listing AUC (0-72 h) ratio Tumor/Kidney for each of the following compounds?
1. COc1cccc(OC)c1-c1cc(C(=O)NC2(C(=O)O)C3CC4CC(C3)CC2C4)nn1-c1ccc(OCCCN(C)CCCN(C)C(=O)CN2CCN(CC(=O)O)CCN(CC(=O)O)CCN(CC(=O)O)CC2)cc1C(C)C (stereo not drawn) [Compound I-7]
2. COc1cccc(OC)c1-c1cc(C(=O)NC2(C(=O)O)C3CC4CC(C3)CC2C4)nn1-c1ccc(C(=O)N(C)CCCN(C)CCCN(C)C(=O)CN2CCN(CC(=O)O)CCN(CC(=O)O)CCN(CC(=O)O)CC2)cc1C(C)C (stereo not drawn) [Compound C-2, reference compound]

1. 18.1
2. 8.80

###

System: ASPC-1 tumor-bearing mice
protocol-notes: Biodistribution of radionuclide labeled complexes in ASPC-1 tumor-bearing mice
Format: in vivo, BALB/c nude mice
condition-parameters: Stomach, 4 h
Would you kindly list % ID/g (4 h) Stomach for each of these compounds?
Answers are plain numbers, in % ID/g.

Consider the reported % ID/g (4 h) Stomach for these compounds:
compound: COc1cccc(OC)c1-c1cc(C(=O)NC2(C(=O)O)C3CC4CC(C3)CC2C4)nn1-c1ccc(C(=O)N(C)CCCN(C)CCCN(C)C(=O)CN2CCN(CC(=O)[O-])CCN(CC(=O)[O-])CCN(CC(=O)[O-])CC2)cc1C(C)C.[177Lu+3] (stereo not drawn) [^177Lu-C-2, reference compound]
value-type: % ID/g (4 h) Stomach
unit: % ID/g
result-value: 0.6

compound: COc1cccc(OC)c1-c1cc(C(=O)NC2(C(=O)O)C3CC4CC(C3)CC2C4)nn1-c1ccc(N(CCCN(C)C)C(=O)COCCOCCNC(=O)CN2CCN(CC(=O)[O-])CCN(CC(=O)[O-])CCN(CC(=O)[O-])CC2)cc1C(C)C.[177Lu+3] (stereo not drawn) [^177Lu-I-6]
value-type: % ID/g (4 h) Stomach
unit: % ID/g
result-value: 0.21

compound: COc1cccc(OC)c1-c1cc(C(=O)NC2(C(=O)O)C3CC4CC(C3)CC2C4)nn1-c1ccc(N(C)CCCN(C)CCCN(C)C(=O)CN2CCN(CC(=O)[O-])CCN(CC(=O)[O-])CCN(CC(=O)[O-])CC2)cc1C(C)C.[177Lu+3] (stereo not drawn) [^177Lu-I-1]
value-type: % ID/g (4 h) Stomach
unit: % ID/g
result-value: 0.57

Could you tell me % ID/g (4 h) Stomach for each of these compounds? They are listed below.
1. COc1cccc(OC)c1-c1cc(C(=O)NC2(C(=O)O)C3CC4CC(C3)CC2C4)nn1-c1ccc(C(=O)N(CCCNC(=O)CN2CCN(CC(=O)[O-])CCN(CC(=O)[O-])CCN(CC(=O)[O-])CC2)CCCN(C)C)cc1C(C)C.[177Lu+3] (stereo not drawn) [^177Lu-C-5, reference compound]
2. COc1cccc(OC)c1-c1cc(C(=O)NC2(C(=O)O)C3CC4CC(C3)CC2C4)nn1-c1ccc(OCCCN(C)CCCN(C)C(=O)CN2CCN(CC(=O)[O-])CCN(CC(=O)[O-])CCN(CC(=O)[O-])CC2)cc1C(C)C.[177Lu+3] (stereo not drawn) [^177Lu-I-7]
3. COc1cccc(OC)c1-c1cc(C(=O)NC2(C(=O)O)C3CC4CC(C3)CC2C4)nn1-c1ccc(SCCCN(C)CCCN(C)C(=O)CN2CCN(CC(=O)[O-])CCN(CC(=O)[O-])CCN(CC(=O)[O-])CC2)cc1C(C)C.[177Lu+3] (stereo not drawn) [^177Lu-I-8]
4. COc1cccc(OC)c1-c1cc(C(=O)NC2(C(=O)O)C3CC4CC(C3)CC2C4)nn1-c1ccc(NCCCN(C)CCCNC(=O)CN2CCN(CC(=O)[O-])CCN(CC(=O)[O-])CCN(CC(=O)[O-])CC2)cc1C(C)C.[177Lu+3] (stereo not drawn) [^177Lu-I-2]

1: 0.4; 2: 0.58; 3: 1.74; 4: 0.86

Please report % ID/g (4 h) Stomach for every entry that follows.
1. COc1cccc(OC)c1-c1cc(C(=O)NC2(C(=O)O)C3CC4CC(C3)CC2C4)nn1-c1ccc(NC(=O)CCCN(C)CCCN(C)C(=O)CN2CCN(CC(=O)[O-])CCN(CC(=O)[O-])CCN(CC(=O)[O-])CC2)cc1C(C)C.[177Lu+3] (stereo not drawn) [^177Lu-I-5]
2. COc1cccc(OC)c1-c1cc(C(=O)NC2(C(=O)O)C3CC4CC(C3)CC2C4)nn1-c1ccc(NCCOCCOCCNC(=O)CN2CCN(CC(=O)[O-])CCN(CC(=O)[O-])CCN(CC(=O)[O-])CC2)cc1C(C)C.[177Lu+3] (stereo not drawn) [^177Lu-I-10]

[3.52, 1.88]

###

Test system: ASPC-1 tumor-bearing mice
protocol-notes: Biodistribution of radionuclide labeled complexes in ASPC-1 tumor-bearing mice
Format: in vivo, BALB/c nude mice
condition-parameters: Tumor, 4 h
value-type: % ID/g (4 h) Tumor (% ID/g)
Give bare numbers, in % ID/g.

Reference set, count: 3
molecule: COc1cccc(OC)c1-c1cc(C(=O)NC2(C(=O)O)C3CC4CC(C3)CC2C4)nn1-c1ccc(NC(=O)CCCN(C)CCCN(C)C(=O)CN2CCN(CC(=O)[O-])CCN(CC(=O)[O-])CCN(CC(=O)[O-])CC2)cc1C(C)C.[177Lu+3] (stereo not shown) [^177Lu-I-5]
% ID/g (4 h) Tumor [% ID/g]: 27.56
--
molecule: COc1cccc(OC)c1-c1cc(C(=O)NC2(C(=O)O)C3CC4CC(C3)CC2C4)nn1-c1ccc(C(=O)N(C)CCCN(C)CCCN(C)C(=O)CN2CCN(CC(=O)[O-])CCN(CC(=O)[O-])CCN(CC(=O)[O-])CC2)cc1C(C)C.[177Lu+3] (stereo not shown) [^177Lu-C-2, reference compound]
% ID/g (4 h) Tumor [% ID/g]: 16.13
--
molecule: COc1cccc(OC)c1-c1cc(C(=O)NC2(C(=O)O)C3CC4CC(C3)CC2C4)nn1-c1ccc(N(CCCN(C)C)C(=O)COCCOCCNC(=O)CN2CCN(CC(=O)[O-])CCN(CC(=O)[O-])CCN(CC(=O)[O-])CC2)cc1C(C)C.[177Lu+3] (stereo not shown) [^177Lu-I-6]
% ID/g (4 h) Tumor [% ID/g]: 13.64

Let's switch to this molecule now.
Quickly give me recorded % ID/g (4 h) Tumor for COc1cccc(OC)c1-c1cc(C(=O)NC2(C(=O)O)C3CC4CC(C3)CC2C4)nn1-c1ccc(C(=O)N(CCCNC(=O)CN2CCN(CC(=O)[O-])CCN(CC(=O)[O-])CCN(CC(=O)[O-])CC2)CCCN(C)C)cc1C(C)C.[177Lu+3] (stereo not shown) [^177Lu-C-5, reference compound] 13.06

###

Test system: ASPC-1 tumor-bearing mice
protocol-notes: Biodistribution of radionuclide labeled complexes in ASPC-1 tumor-bearing mice
Type: in vivo, BALB/c nude mice
condition-parameters: Blood, 1 h
value-type: % ID/g (1 h) Blood (% ID/g)
Give bare numbers, in % ID/g.

compound: COc1cccc(OC)c1-c1cc(C(=O)NC2(C(=O)O)C3CC4CC(C3)CC2C4)nn1-c1ccc(C(=O)N(C)CCCN(C)CCCN(C)C(=O)CN2CCN(CC(=O)[O-])CCN(CC(=O)[O-])CCN(CC(=O)[O-])CC2)cc1C(C)C.[177Lu+3] (stereo not shown) [^177Lu-C-2, reference compound]
% ID/g (1 h) Blood (% ID/g): 13.87
--
compound: COc1cccc(OC)c1-c1cc(C(=O)NC2(C(=O)O)C3CC4CC(C3)CC2C4)nn1-c1ccc(C(=O)N(CCCNC(=O)CN2CCN(CC(=O)[O-])CCN(CC(=O)[O-])CCN(CC(=O)[O-])CC2)CCCN(C)C)cc1C(C)C.[177Lu+3] (stereo not shown) [^177Lu-C-5, reference compound]
% ID/g (1 h) Blood (% ID/g): 3.18
--
compound: COc1cccc(OC)c1-c1cc(C(=O)NC2(C(=O)O)C3CC4CC(C3)CC2C4)nn1-c1ccc(OCCCN(C)CCCN(C)C(=O)CN2CCN(CC(=O)[O-])CCN(CC(=O)[O-])CCN(CC(=O)[O-])CC2)cc1C(C)C.[177Lu+3] (stereo not shown) [^177Lu-I-7]
% ID/g (1 h) Blood (% ID/g): 9.79

The record that follows has no % ID/g (1 h) Blood shown yet.
For ASPC-1 tumor-bearing mice, give % ID/g (1 h) Blood of the listed compound: COc1cccc(OC)c1-c1cc(C(=O)NC2(C(=O)O)C3CC4CC(C3)CC2C4)nn1-c1ccc(N(CCCN(C)C)C(=O)COCCOCCNC(=O)CN2CCN(CC(=O)[O-])CCN(CC(=O)[O-])CCN(CC(=O)[O-])CC2)cc1C(C)C.[177Lu+3] (stereo not shown) [^177Lu-I-6] 0.38
